Answer each item with its documented growth.
System: SF-295 CNS
assay remarks: NCI-60 one-dose screen, 48 h (100 = growth as untreated, 0 = no growth, -100 = all killed)
test conditions: 10 µM unless noted
The panel holds about 83,000 compounds, 20% with a hit somewhere; the sample as a whole holds those more often.
One number for each entry, in %.

The examples below pair each entry with its known result.
molecule	tested system	endpoint unit	growth
NC(=S)NN=C1CCCCC1	SF-295 CNS	%	92.8
COc1cc(NCCCN=C(N)NC(N)=NC(C)C)c2ncccc2c1	SF-295 CNS	%	87.5
COc1c(NC[C@H]2OC(O)[C@H](O)[C@@H](O)[C@@H]2O)c(=O)c1=O (stereo partly specified)	SF-295 CNS	%	107
CC(=O)Nc1nc(C(=O)N2N=C(C)/C(=C/c3ccccc3)C2=O)cs1	SF-295 CNS	%	108
COc1ccc(OC)c(NC(=O)c2cc(S(=O)(=O)N3CCc4ccccc43)ccc2OC)c1	SF-295 CNS	%	73.4

I would be grateful if you could provide growth for each of the following entries.
1. O=c1oc2c([nH]c3ccc4ccccc4c32)c2ccccc12
2. CC[C@]1(O)C[C@@H]2CN(Cc3c([nH]c4ccccc34)[C@@](C(=O)OC)(c3cc4c(cc3OC)N(C)[C@H]3[C@@](O)(C(=O)OC)[C@H](OC(C)=O)[C@]5(CC)[C@@H]6C[C@@H]6CN6CC[C@]43[C@@H]65)C2)C1
3. Cc1oc2ncnc(Nc3ccccc3)c2c1C(=O)NCCO
4. c1ccc2c(c1)Oc1ccccc1C2C1c2ccccc2Oc2ccccc21
5. CC1=C(C#N)C(C)(C)C(C#N)=C(C)N1
6. CC(C)C[C@H](NC(=O)Cn1ccc(NCc2ccccc2)cc1=O)B(O)O
7. CCC(c1ccc(OC)cc1)C(CC)c1ccc(OCC[N+](C)(C)C)cc1 (stereo unspecified)
8. CCCCNc1nnc(-c2cc(-c3cc4ccccc4o3)nn2-c2ccccc2)o1

# output
99.6
-13.9
100
96.1
96.1
28.4
78.6
98.7

Dear reader, for each entry below, please note its growth.
1. Cc1nc2scc(-c3ccccc3)n2c(=O)c1CCO
2. COc1ccc(C2CC(c3cccs3)=NN2c2ccc(S(=O)(=O)NC(=O)NCc3cccc(OC)c3)cc2)cc1 (stereo unspecified)
3. O=C(Nc1ccc(Cl)cc1)c1cc(-c2ccc(F)cc2)c2sc(=O)[nH]c2n1
4. CC/C=C\C[C@H](O)C/C=C1/C(=O)C(Cl)=C[C@@H]1C/C=C\CCCC(=O)OC
5. CCCOC(=O)C1(O)CCCC1

# output
1: 102; 2: 105; 3: 9.57; 4: -19.6; 5: 105

Provide the reported growth of each entry below, same order.
1. Clc1nc(-c2cccnc2)nc2sc3c(c12)CCCCCC3
2. COc1cc(C2CC(c3c(C)[n+]([O-])c4ccccc4[n+]3[O-])=NN2)cc(OC)c1OC (stereo unspecified)

# output
1. 92.9
2. 103
